Origin of the recorded values: a melting point compilation (Tetko et al.; mined from patent text by program, amines drawn as free bases though some values may be those of a salt)

Here, each record is paired with measured melting point data.

In the examples that follow, each entry is paired with its recorded melting point.
O=C(c1ccccc1)N1CCN(c2ccc3nc4[nH]c(=O)[nH]c4cc3c2)CC1: > 300 °C
COc1ccc(C2c3c(C)c(N4CCC(c5ccc(OC)c(OC)c5)CC4)c(C)c(C)c3OC2(C)C)cc1 (stereo unspecified): 154 to 156 °C
Nc1cc(=O)n(Cc2ccc3ccccc3c2)[nH]1: 156 to 157 °C
CCOC(=O)N1CCC(NC(=S)Nc2cccnc2NCc2ccco2)CC1: 133 °C
NS(=O)(=O)c1ccc(-n2nc(C(F)F)cc2-c2ccc3c(c2)OCO3)cc1: 214 to 218 °C
CCOC(=O)c1c(C(F)F)nn(C)c1Cl: 37 to 39 °C
CCCCCCCCCCN(CCC12CC3CC(CC(C3)C1)C2)C(=O)NCCCc1ccncc1: 75 to 76 °C
CCCCCS(=O)(=O)NC(=O)/C=C/c1cc(OCC2(C)COC2)nn1Cc1ccc(C(F)(F)F)cc1Cl: 144 to 147 °C
CC(C)(C)OC(=O)N1CCC(N2Cc3ccccc3NC2=NC#N)CC1: 249 to 250 °C
c1cc2c3c(c1)CNc1ccccc1N3CC2: 175 to 177 °C

Now consider a different compound.
Just so you know, measured melting point for `NCCOCC(P(=O)(O)O)P(=O)(O)O` came out at > 300 °C
